tested-on: Phosphatidylinositol 3-kinase catalytic subunit type 3 (Homo sapiens)
Sequence (Q8NEB9 whole entry): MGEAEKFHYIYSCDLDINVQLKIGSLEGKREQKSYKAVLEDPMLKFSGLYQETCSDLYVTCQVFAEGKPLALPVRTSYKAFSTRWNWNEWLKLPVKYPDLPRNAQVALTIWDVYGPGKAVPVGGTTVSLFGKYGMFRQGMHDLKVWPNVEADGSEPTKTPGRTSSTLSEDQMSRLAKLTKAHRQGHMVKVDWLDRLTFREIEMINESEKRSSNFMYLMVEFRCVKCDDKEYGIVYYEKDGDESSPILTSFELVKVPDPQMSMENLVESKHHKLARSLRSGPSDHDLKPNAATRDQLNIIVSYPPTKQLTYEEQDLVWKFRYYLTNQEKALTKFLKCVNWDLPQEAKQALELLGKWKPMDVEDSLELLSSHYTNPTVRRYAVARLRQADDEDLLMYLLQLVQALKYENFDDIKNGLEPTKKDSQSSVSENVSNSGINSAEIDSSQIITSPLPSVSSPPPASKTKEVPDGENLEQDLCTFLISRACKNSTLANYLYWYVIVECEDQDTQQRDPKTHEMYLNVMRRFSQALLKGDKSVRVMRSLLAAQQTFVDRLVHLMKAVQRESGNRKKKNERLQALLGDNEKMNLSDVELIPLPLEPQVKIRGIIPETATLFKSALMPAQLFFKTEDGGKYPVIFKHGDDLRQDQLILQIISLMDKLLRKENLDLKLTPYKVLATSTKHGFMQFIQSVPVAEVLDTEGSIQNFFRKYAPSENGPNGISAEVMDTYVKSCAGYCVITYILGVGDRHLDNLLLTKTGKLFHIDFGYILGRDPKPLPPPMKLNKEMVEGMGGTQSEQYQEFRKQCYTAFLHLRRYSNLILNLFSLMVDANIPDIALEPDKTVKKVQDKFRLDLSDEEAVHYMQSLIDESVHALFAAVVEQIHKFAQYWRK
assay-summary: Inhibition of full length recombinant GST-tagged human VPS34 expressed in baculovirus expression system using PI/PS as substrate incubated for 60 mins in presence of ATP at Km concentration by luminescence assay
pKi: −log10 of the molar value.
quantity-measured: pKi

* COc1ccc2c(c1)Cc1cccc(-c3cc(O)nc(N4CCOCC4)n3)c1S2 | 7.46
* Oc1cc(N2CCOCC2)nc(N2CCC[C@@H]2Cc2ccccc2)n1 | 7.80
* C[C@@H]1CN(c2cc(=O)[nH]c(N3C[C@@H]4C[C@@H]4[C@@H]3Cc3ccccc3)n2)CCO1 | 5.82
* C[C@@H]1CN(c2cc(=O)[nH]c(N3C[C@H]4C[C@H]4[C@@H]3Cc3ccccc3)n2)CCO1 | 6.06
* Oc1cc(N2CCC[C@@H]2Cc2ccccc2)nc(N2CCOCC2)n1 | 6.57
* O=c1cc(N2CCOCC2)cc(N2CCC(F)(F)[C@@H]2Cc2ccccc2)[nH]1 | 7.41
* COc1ccc2c(c1)Cc1cccc(-c3cc(N4CCOCC4)cc(=O)n3C)c1S2 | 6.04
* COc1ccc2c(c1)Cc1cccc(-c3cc(N4CCOCC4)nc(O)n3)c1S2 | 5.48

I: C[C@@H]1CN(c2cc(N3CCCCC[C@@H]3Cc3ccccc3)[nH]c(=O)c2)CCO1
II: O=c1cc(N2CCOCC2)nc(N2C[C@@H]3C[C@@H]3[C@@H]2Cc2ccccc2)[nH]1
Exam item: When their pKi values are compared, which is larger, I or II ? Answer by quoting the chosen item's label.
Marked response: II

a: O=c1cc(N2CCOCC2)cc(N2CCCCC[C@@H]2Cc2ccccc2)[nH]1
b: C[C@@H]1CN(c2cc(=O)[nH]c(N3CCCCC[C@@H]3Cc3ccccc3)n2)CCO1
c: C[C@@H]1CCN(c2nc(N3CCOCC3)cc(=O)[nH]2)[C@H]1Cc1ccccc1
Exam item: Please list these compounds in decreasing order of pKi. Your task in answering is to list the labels in the requested order.
Marked response: c, a, b
(c: 8.22, a: 7.30, b: 6.08)

* * *

tested-on: Serine-protein kinase ATM (Homo sapiens)
assay-summary: Inhibition of ATM in human U2OS cells assessed as reduction in etoposide-stimulated KAP1 phosphorylation incubated for 60 mins by immunoreactivity assay
quantity-measured: IC50 (nM)

Please review the entries below; each comes with its answer.
* O=c1cc(N2CCOCC2)cc(N2CCCCC[C@@H]2Cc2ccccc2)[nH]1 | 230
* COc1ccc2c(c1)Cc1cccc(-c3cc(O)nc(N4CCOCC4)n3)c1S2 | 6700
* O=c1cc(N2CCOCC2)nc(N2CCCCC[C@@H]2Cc2ccccc2)[nH]1 | 200
* C[C@@H]1CN(c2cc(N3CCCCC[C@@H]3Cc3ccccc3)[nH]c(=O)c2)CCO1 | 1600

a: O=c1cc(N2CCOCC2)cc(N2CC[C@@H](F)[C@@H]2Cc2ccccc2)[nH]1
b: CO[C@@H]1CCN(c2cc(N3CCOCC3)cc(=O)[nH]2)[C@H]1Cc1ccccc1
Exam item: Compare a and b by numeric IC50 and name the larger one. Mark your selection by writing its label.
Marked response: b
(b: 3500 nM, a: 1300 nM)

* * *

assay-summary: Intrinsic clearance in C57Bl/6 mouse pooled liver microsomes at 1 uM measured up to 40 mins in presence of NADPH by LC-MS/MS analysis
Format: ADME, Microsome
run-conditions: read-out: CLH
quantity-measured: CLint scaled at 1 µM (L/h/kg)

- O=c1cc(N2CCOCC2)nc(N2CCCCC[C@@H]2Cc2ccccc2)[nH]1: 17.2

A: Oc1cc(N2CCOCC2)nc(N2CCC[C@@H]2Cc2ccccc2)n1
B: O=c1cc(N2CCOCC2)cc(N2CCC[C@@H]2Cc2ccccc2)[nH]1
C: O=c1cc(N2CCOCC2)cc(N2CCCCC[C@@H]2Cc2ccccc2)[nH]1
Exam item: Rank entries according to their CLint scaled at 1 µM, from the largest number down. List the labels, following the order given in the request.
Marked response: A, B, C

* * *

tested-on: Serine-protein kinase ATM (Homo sapiens, UniProt Q13315)
Sequence (Q13315 whole entry): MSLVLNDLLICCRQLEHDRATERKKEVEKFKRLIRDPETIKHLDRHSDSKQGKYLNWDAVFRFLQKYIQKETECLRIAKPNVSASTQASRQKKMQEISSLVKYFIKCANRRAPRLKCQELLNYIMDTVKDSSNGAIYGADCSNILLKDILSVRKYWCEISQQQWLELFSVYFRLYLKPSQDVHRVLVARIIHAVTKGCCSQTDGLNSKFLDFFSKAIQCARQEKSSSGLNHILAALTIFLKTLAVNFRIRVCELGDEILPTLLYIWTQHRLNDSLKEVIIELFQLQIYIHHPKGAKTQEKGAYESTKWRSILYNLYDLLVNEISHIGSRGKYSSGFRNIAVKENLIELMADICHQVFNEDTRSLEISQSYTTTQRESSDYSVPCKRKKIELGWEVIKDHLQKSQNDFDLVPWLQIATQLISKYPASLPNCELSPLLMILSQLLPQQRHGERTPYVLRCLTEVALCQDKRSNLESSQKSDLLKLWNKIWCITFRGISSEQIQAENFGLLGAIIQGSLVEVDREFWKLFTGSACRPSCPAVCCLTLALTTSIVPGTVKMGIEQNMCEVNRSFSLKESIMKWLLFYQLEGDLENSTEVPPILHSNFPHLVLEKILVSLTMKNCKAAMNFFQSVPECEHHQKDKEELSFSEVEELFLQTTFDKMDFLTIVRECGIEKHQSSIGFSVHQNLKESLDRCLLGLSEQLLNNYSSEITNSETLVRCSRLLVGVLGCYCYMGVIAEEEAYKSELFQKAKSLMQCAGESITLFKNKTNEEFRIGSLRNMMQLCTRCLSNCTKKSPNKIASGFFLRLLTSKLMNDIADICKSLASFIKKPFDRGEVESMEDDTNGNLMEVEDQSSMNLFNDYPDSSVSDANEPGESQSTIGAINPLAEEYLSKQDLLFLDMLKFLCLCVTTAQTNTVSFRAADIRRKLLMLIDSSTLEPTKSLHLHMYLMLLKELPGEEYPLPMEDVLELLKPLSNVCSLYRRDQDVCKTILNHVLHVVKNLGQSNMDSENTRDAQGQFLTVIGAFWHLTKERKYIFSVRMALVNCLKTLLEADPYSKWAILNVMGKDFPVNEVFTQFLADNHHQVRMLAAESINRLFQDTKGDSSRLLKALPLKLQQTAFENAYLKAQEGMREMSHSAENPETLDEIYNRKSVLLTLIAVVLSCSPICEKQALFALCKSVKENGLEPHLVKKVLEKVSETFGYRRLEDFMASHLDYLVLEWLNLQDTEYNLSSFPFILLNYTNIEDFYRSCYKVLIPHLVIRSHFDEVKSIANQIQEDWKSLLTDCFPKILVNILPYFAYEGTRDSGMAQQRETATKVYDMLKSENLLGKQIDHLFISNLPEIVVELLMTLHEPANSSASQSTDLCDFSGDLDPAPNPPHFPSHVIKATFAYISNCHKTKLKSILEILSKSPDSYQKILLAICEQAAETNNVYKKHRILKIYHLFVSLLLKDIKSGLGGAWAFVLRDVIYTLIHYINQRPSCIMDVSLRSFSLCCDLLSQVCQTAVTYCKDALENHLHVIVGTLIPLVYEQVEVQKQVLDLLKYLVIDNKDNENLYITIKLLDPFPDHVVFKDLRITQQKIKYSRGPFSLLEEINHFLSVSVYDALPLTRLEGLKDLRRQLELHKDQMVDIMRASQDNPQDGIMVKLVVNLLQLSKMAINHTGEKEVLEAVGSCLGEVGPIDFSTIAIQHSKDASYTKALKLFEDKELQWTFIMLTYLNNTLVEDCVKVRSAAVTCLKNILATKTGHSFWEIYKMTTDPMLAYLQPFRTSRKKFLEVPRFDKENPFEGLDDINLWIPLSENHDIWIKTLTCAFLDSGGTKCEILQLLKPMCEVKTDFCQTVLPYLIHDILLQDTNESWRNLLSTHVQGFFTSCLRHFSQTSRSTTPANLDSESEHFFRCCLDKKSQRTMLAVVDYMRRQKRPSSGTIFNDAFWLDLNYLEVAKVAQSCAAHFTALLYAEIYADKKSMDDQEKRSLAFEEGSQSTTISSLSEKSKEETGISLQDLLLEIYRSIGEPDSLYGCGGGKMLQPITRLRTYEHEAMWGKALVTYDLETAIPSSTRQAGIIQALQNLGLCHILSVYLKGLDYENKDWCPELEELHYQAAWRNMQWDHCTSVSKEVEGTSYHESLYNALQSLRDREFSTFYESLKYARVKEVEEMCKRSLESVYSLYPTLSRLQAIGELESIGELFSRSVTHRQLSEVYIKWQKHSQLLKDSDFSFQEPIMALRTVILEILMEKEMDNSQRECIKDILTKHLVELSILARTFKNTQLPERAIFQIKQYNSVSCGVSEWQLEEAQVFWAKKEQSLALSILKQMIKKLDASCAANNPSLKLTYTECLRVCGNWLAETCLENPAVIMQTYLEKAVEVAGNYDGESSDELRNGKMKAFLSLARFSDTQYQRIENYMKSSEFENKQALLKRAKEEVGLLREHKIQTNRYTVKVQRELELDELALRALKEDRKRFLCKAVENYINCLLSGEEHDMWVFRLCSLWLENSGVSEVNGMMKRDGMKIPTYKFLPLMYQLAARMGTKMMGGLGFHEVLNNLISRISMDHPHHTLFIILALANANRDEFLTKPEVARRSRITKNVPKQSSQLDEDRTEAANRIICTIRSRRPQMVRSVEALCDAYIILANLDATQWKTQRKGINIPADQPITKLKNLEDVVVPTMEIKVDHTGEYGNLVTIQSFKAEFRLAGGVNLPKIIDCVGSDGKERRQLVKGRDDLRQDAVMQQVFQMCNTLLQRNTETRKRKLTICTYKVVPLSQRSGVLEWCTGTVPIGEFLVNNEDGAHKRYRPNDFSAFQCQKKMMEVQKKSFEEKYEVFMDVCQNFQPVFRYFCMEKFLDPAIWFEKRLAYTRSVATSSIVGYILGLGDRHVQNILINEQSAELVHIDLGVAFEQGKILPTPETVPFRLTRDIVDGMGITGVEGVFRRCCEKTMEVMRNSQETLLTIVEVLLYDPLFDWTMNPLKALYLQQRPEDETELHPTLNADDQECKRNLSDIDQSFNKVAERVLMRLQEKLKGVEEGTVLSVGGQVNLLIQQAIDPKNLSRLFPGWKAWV
assay-summary: Inhibition of ATM in human U2OS cells assessed as reduction in etoposide-stimulated KAP1 phosphorylation incubated for 60 mins by immunoreactivity assay
pIC50: −log10 of the molar value.
quantity-measured: pIC50

# annotated cases, reported pIC50 shown
- C[C@@H]1CCN(c2nc(N3CCOCC3)cc(=O)[nH]2)[C@H]1Cc1ccccc1: 7.05
- O=c1cc(N2CCOCC2)cc(N2CCCC2Cc2ccccc2)[nH]1 (racemic): 5.40
- O=c1cc(N2CCOCC2)nc(N2C[C@H]3C[C@H]3[C@@H]2Cc2ccccc2)[nH]1: 6.89

P: Oc1cc(N2CCOCC2)nc(N2CCC[C@@H]2Cc2ccccc2)n1
Q: COc1ccc2c(c1)Cc1cccc(-c3cc(N4CCOCC4)cc(=O)[nH]3)c1S2
Exam item: Param metric = pIC50; output whichever of P , Q has the minimum value. Give the label of your selection.
Marked response: Q

* * *

Species: Homo sapiens
assay-summary: Selectivity ratio of Ki for full length recombinant GST-tagged VPS34 expressed in baculovirus expression system using PI/PS as substrate incubated for 60 mins in presence of ATP at Km concentration by luminescence assay to Ki for full length recombinant FLAG-tagged human ATM assessed as decrease in p53 S15 phosphorylation using full length myc-tagged p53 as substrate incubated for 30 mins in presence of ATP by ELISA
quantity-measured: Ratio Ki

A: C[C@@H]1CN(c2cc(=O)[nH]c(N3C[C@@H]4C[C@@H]4[C@@H]3Cc3ccccc3)n2)CCO1
B: Oc1cc(N2CCOCC2)nc(N2CCC[C@@H]2Cc2ccccc2)n1
Exam item: Sorting ascending by Ratio Ki, which comes first: A or B ? State your choice using its label.
Marked response: B

* * *

assay-summary: Apparent permeability across apical to basolateral side in MDCK-MDR1 cells after 1 hr by LC-MS/MS analysis
Assay type: ADME, cell-based, Canis lupus familiaris
run-conditions: dog
quantity-measured: Papp A→B at 1 h (×10⁻⁶ cm/s)

# count of solved cases: 5
• O=c1cc(N2CCOCC2)cc(N2CCC(F)(F)[C@@H]2Cc2ccccc2)[nH]1 = 75.2
• O=c1cc(N2CCOCC2)cc(N2CCCCC[C@@H]2Cc2ccccc2)[nH]1 = 55.6
• O=c1cc(N2CCOCC2)nc(N2CCCCC[C@@H]2Cc2ccccc2)[nH]1 = 58.1
• O=c1cc(N2CCOCC2)cc(N2CCC[C@@H]2Cc2ccccc2)[nH]1 = 59.9
• O=c1cc(N2CCOCC2)cc(N2C[C@H]3C[C@H]3[C@@H]2Cc2ccccc2)[nH]1 = 65.7

A: CO[C@@H]1CCN(c2cc(N3CCOCC3)cc(=O)[nH]2)[C@H]1Cc1ccccc1
B: O=c1cc(N2CCOCC2)cc(N2CC[C@@H](F)[C@@H]2Cc2ccccc2)[nH]1
C: Oc1cc(N2CCOCC2)nc(N2CCC[C@@H]2Cc2ccccc2)n1
Exam item: list the entries in increasing order of Papp A→B at 1 h. Would you mind listing the labels in the order requested?
Marked response: A, B, C

* * *

Kp uu overview
assay-summary: Unbound brain-to-plasma concentration ratio in C57Bl/6 mouse at 2 mg/kg, iv administered as single dose
Type: ADME, organism-based
run-conditions: brain and plasma, read-out: K(p,uu,brain)
Form rule: numeric answer, no unit written next to it.

* O=c1cc(N2CCOCC2)cc(N2CCCCC[C@@H]2Cc2ccccc2)[nH]1 | 0.18

Please find the next compound below.
Exam item: What value of Kp uu has been reported for the following compound? O=c1cc(N2CCOCC2)cc(N2C[C@H]3C[C@H]3[C@@H]2Cc2ccccc2)[nH]1
Marked response: 0.12

* * *

assay-summary: Kinetic solubility of the compound in pH 7.4 PBS buffer incubated for 2 hrs using orbital shaker by LC-UV mass spectrometry
Type: physicochemical
run-conditions: read-out: Kinetic_solubility
quantity-measured: solubility kinetic at 2 h (µg/mL)

- C[C@@H]1CN(c2cc(=O)[nH]c(N3C[C@H]4C[C@H]4[C@@H]3Cc3ccccc3)n2)CCO1: 48

P: O=c1cc(N2CCOCC2)cc(N2CCC(Cc3ccccc3)C2)[nH]1 (stereo not given)
Q: O=c1cc(N2CCOCC2)cc(N2CCCC[C@@H]2Cc2ccccc2)[nH]1
R: COc1ccc2c(c1)Cc1cccc(-c3cc(N4CCOCC4)cc(=O)n3C)c1S2
S: Oc1cc(N2CCOCC2)nc(N2CCC[C@@H]2Cc2ccccc2)n1
Exam item: Hey, can you sort those molecules up there by solubility kinetic at 2 h, smallest first? List each label, following the requested order.
Marked response: P, R, S, Q

* * *

assay-summary: Brain to plasma permeability coefficient, Kp in C57Bl/6 mouse at 0.8 mg/kg, iv administered as single dose
Format: ADME, organism-based
run-conditions: brain and plasma
quantity-measured: Kp
Response field accepts a number only; no unit should be typed.

Exam item: Endpoint output: Kp of C[C@@H]1CCN(c2nc(N3CCOCC3)cc(=O)[nH]2)[C@H]1Cc1ccccc1 . Value?
Marked response: 1

Recorded values, source ChEMBL document CHEMBL4823251.
